B1: BTBD1 (parent)
chain: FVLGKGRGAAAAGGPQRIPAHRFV

Variants of: B1
Experiment: protein stability index of a GFP-peptide fusion (GPS, HEK-293T) (PSI 1-6); higher = more stable;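 also: lentivirally expressed fusions sorted by FACS into six bins by GFP to DsRed ratio, PSI derived from sequencing read proportions per bin multiplied by bin number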
Details: c terminus: a fixed tail appended
Classes based on protein stability index: label 0 (below 2), label 1 (2 to below 3), label 2 (3 or more)

Answered examples (7):
FVLGKGRGAAAQGGPQRIPAHRFV [A12Q] : label 0
FVLGKGRGEAAAGGPQRIPAHRFV [A9E] : label 1
FVLLKGRGAAAAGGPQRIPAHRFV [G4L] : label 1
FVLGKGRGAYAAGGPQRIPAHRFV [A10Y] : label 0
FVLGKYRGAAAAGGPQRIPAHRFV [G6Y] : label 2
FVLKKGRGAAAAGGPQRIPAHRFV [G4K] : label 0
FVLGKGRGLAAAGGPQRIPAHRFV [A9L] : label 2

[in] Which band does GVLGKGRGAAAAGGPQRIPAHRFV [F1G] fall in?
[out] label 2
